molecular target: p38alpha (Homo sapiens (Human))
Sequence (Q16539 whole entry): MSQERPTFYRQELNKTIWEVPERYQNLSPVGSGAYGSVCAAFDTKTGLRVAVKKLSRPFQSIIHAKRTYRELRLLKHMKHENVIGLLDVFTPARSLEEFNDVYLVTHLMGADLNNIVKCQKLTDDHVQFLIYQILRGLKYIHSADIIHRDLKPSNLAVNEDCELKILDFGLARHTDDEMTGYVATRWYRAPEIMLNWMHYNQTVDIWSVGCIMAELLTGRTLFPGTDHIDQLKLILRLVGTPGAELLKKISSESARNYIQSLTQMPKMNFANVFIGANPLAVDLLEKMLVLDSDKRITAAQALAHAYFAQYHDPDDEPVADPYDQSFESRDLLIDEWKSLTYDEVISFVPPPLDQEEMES
reported endpoint: IC50

Reference set, count: 8
molecule: CCNC(=O)Nc1ccc2ncc(-c3cccc(C(N)=O)c3)nc2n1 [Compound 155]
reported endpoint: IC50
meas value: > 100 µM
--
molecule: CCNC(=O)Nc1ccc2ncc(-c3ccc(O)c(OC)c3)nc2n1 [Compound 124]
reported endpoint: IC50
meas value: > 100 µM
--
molecule: CCNC(=O)Nc1ccc2ncc(Nc3ccc(CC)cc3)nc2n1 [Compound 162]
reported endpoint: IC50
meas value: > 100 µM
--
molecule: CCNC(=O)Nc1ccc2ncc(-c3ccc(C#N)s3)nc2n1 [Compound 174]
reported endpoint: IC50
meas value: > 31.6 µM
--
molecule: CCNC(=O)Nc1ccc2ncc(Nc3ccccc3C)nc2n1 [Compound 160]
reported endpoint: IC50
meas value: > 31.6 µM
--
molecule: CCNC(=O)Nc1ccc2ncc(-c3ccc(N)cc3)nc2n1 [Compound 82]
reported endpoint: IC50
meas value: > 31.6 µM
--
molecule: C=CCNC(=S)Nc1ccc2ncc(-c3ccccc3)nc2n1 [Compound 1]
reported endpoint: IC50
meas value: > 31.6 µM
--
molecule: CCNC(=O)Nc1ccc2ncc(-c3ccc(O)c(OC)c3)nc2n1 [Compound 193]
reported endpoint: IC50
meas value: > 100 µM

# input Bench note: what IC50 did CCNC(=O)Nc1ccc2ncc(Nc3ccc(OC)c(OC)c3)nc2n1 [Compound 187] show?
# output > 31.6 µM

# input Bench note: what IC50 did CCNC(=O)Nc1ccc2ncc(-c3cccc(O)c3)nc2n1 [Compound 151] show?
# output > 100 µM

# input Bench note: what IC50 did CCNC(=O)Nc1ccc2ncc(-c3cccc(C(=O)O)c3)nc2n1 [Compound 152] show?
# output > 100 µM

# input Bench note: what IC50 did CCNC(=O)Nc1ccc2ncc(Nc3cccc(C)c3)nc2n1 [Compound 157] show?
# output > 100 µM

# input Bench note: what IC50 did CCNC(=O)Nc1ccc2ncc(-c3ccc(OC)c(OC)c3)nc2n1 [Compound 153] show?
# output > 100 µM

# input Bench note: what IC50 did CCNC(=O)Nc1ccc2ncc(Nc3ccc(C)c(OC)c3)nc2n1 [Compound 163] show?
# output > 100 µM

# input Bench note: what IC50 did CCNC(=O)Nc1ccc2ncc(Nc3ccc(OC)cc3)nc2n1 [Compound 158] show?
# output > 100 µM

###

tested on: PI3K → pAkt; test: Cellular substrate phosphorylation (Western Blotting), PI3K substrate pAkt; format: cell-based; details: 50 μM, 5 h
Recorded inhibition at 50 µM by entry
Write down the numeric answer in % and omit the unit.

Reference set, count: 4
compound: O=C(NCCCCO)Nc1ccc2ncc(-c3ccccc3)nc2n1 [Compound 146]
unit text: %
inhibition at 50 µM: 10

compound: C=CCNC(=S)Nc1ccc2ncc(-c3ccc(O)cc3)nc2n1 [Compound 30]
unit text: %
inhibition at 50 µM: 100

compound: CCNC(=O)Nc1ccc2ncc(-c3cnn(C)c3)nc2n1 [Compound 173]
unit text: %
inhibition at 50 µM: 50

compound: O=c1cc(N2CCOCC2)oc2c(-c3ccccc3)cccc12 [Ly294002, reference compound]
unit text: %
inhibition at 50 µM: 40

# input Bench note: what inhibition at 50 µM did COC[C@H]1OC(=O)c2coc3c2[C@@]1(C)C1=C(C3=O)[C@@H]2CCC(=O)[C@@]2(C)C[C@H]1OC(C)=O [Wortmannin, reference compound] show?
# output 100

# input Bench note: what inhibition at 50 µM did CCNC(=O)Nc1ccc2ncc(-c3ccc(O)c(OC)c3)nc2n1 [Compound 124] show?
# output 90

# input Bench note: what inhibition at 50 µM did CCNC(=O)Nc1ccc2ncc(Nc3ccc(C)cc3)nc2n1 [Compound 150] show?
# output 90
